Origin of the recorded values: the Immune Epitope Database (IEDB)

Target: HLA-A*01:01
Test: IEDB peptide-MHC binding, purified MHC/competitive/fluorescence; filed as Kd, often an IC50 or EC50 that approximates it; bounds were set here for any values at or beyond the usual limits of such assays
Conditions: source organism: Plasmodium falciparum
Test Readout: Kd

Sequence Chain	Result
ELDYENDIEK	≥ 100 µM
IEQYLKKIQY	≥ 100 µM
VTCGNGIQV	≥ 100 µM

----------
Target: HLA-A*24:02
Test: IEDB peptide-MHC binding, purified MHC/competitive/fluorescence; filed as Kd, often an IC50 or EC50 that approximates it; bounds were set here for any values at or beyond the usual limits of such assays
Details: source organism: Plasmodium falciparum
Below is a list of entries, each paired with its recorded Kd value.
Test Readout: Kd

Sequence Chain	Test Readout	Result
CKMEKCSSVF	Kd	≥ 250 µM
EWSPCSVTCG	Kd	≥ 685 µM
IQNSLSTEW	Kd	≥ 21.3 µM
